# Experimental system: human TRPA1 (Homo sapiens (Human))
# Protocol: In vitro inhibition of human TRPA1, whole cell patch configuration
# Assay type: cell-based
# Measurement context: current activation 10 μM AITC, tested concentrations 320 pM to 3.2 μM, read-out: hTRPA1 IC50
Quantity measured: pIC50
Convention used: pIC50 is expressed as -log10 of the molar concentration.

[ask] For the molecule C[C@@H](C(=O)Nc1cncc(-c2cnc(N3CC4CC4C3)nc2)n1)n1cnc2c1c(=O)n(CC#N)c(=O)n2C (stereo partly shown) [Compound 144] , what pIC50 is on record?
[reply] 8.22

[ask] Dear colleague, I am looking for the recorded pIC50 of the following molecule: Cc1cc(Cn2c(=O)c3c(ncn3[C@@H](C)C(=O)Nc3cncc(-c4ccc(C(F)(F)F)nc4)n3)n(C)c2=O)no1
[reply] 7.77

[ask] What does the data say about its pIC50? Entry: CC(=O)Cn1c(=O)c2c(ncn2[C@@H](C)C(=O)Nc2cccc(-c3cnc(N4CC5C(C4)C5(F)F)cn3)n2)n(C)c1=O (stereo partly shown)
[reply] 7.96

[ask] Quick check: pIC50 of Cc1cc(Cn2c(=O)c3c(ncn3[C@@H](C)C(=O)Nc3csc(-c4cnc(C)c(F)c4)n3)n(C)c2=O)no1 ?
[reply] 8.10

[ask] Any idea what pIC50 was measured for Cn1c(=O)n(Cc2ccccn2)c(=O)c2c1ncn2CC(=O)Nc1csc(-c2ccc(Cl)cc2)n1 ?
[reply] 7.77

[ask] Look up pIC50: C[C@@H](C(=O)Nc1cncc(-c2cnc(N3CCC[C@@H]3C(F)(F)F)nc2)n1)n1cnc2c1c(=O)n(CC#N)c(=O)n2C
[reply] 8.10

[ask] Name the recorded pIC50 for Cc1noc(Cn2c(=O)c3c(ncn3[C@@H](C)C(=O)Nc3cncc(-c4cnc(C(F)(F)F)c(C)c4)n3)n(C)c2=O)n1 .
[reply] 8.05

###

# Experimental system: human TRPA1 (Homo sapiens (Human))
# Protocol: In vitro inhibition of human TRPA1, whole cell patch configuration
# Measurement context: current activation 10 μM AITC, tested concentrations 320 pM to 3.2 μM, read-out: hTRPA1 IC50
We begin with a simple list: items and their reported pIC50.
Answer as the number alone; pIC50 is minus log10 of concentration in mol/L.

Consider the reported pIC50 for these compounds:
Compound: C[C@@H](C(=O)Nc1ccnc(-c2ccc(N3CC4CC4C3)nc2)n1)n1cnc2c1c(=O)n(CC#N)c(=O)n2C (stereo partly drawn) [Compound 53]
pIC50: 7.85

Compound: C[C@@H](C(=O)Nc1cccc(-c2ccc(N3CC4CC4C3)nc2)n1)n1cnc2c1c(=O)n(CC#N)c(=O)n2C (stereo partly drawn) [Compound 35]
pIC50: 8.22

Could you now consider this next compound?
[ask] Entry under review: CC#CCn1c(=O)c2c(ncn2[C@@H](C)C(=O)Nc2cccc(-c3cnc(N4CC5C(C4)C5(F)F)nc3)n2)n(C)c1=O (stereo partly drawn) [Compound 169] . Reported pIC50?
[reply] 8.00

###

Measured IC50, listed per entry for reference.
# Experimental system: human TRPA1 (Homo sapiens (Human), UniProt O75762)
# Sequence (O75762 whole entry): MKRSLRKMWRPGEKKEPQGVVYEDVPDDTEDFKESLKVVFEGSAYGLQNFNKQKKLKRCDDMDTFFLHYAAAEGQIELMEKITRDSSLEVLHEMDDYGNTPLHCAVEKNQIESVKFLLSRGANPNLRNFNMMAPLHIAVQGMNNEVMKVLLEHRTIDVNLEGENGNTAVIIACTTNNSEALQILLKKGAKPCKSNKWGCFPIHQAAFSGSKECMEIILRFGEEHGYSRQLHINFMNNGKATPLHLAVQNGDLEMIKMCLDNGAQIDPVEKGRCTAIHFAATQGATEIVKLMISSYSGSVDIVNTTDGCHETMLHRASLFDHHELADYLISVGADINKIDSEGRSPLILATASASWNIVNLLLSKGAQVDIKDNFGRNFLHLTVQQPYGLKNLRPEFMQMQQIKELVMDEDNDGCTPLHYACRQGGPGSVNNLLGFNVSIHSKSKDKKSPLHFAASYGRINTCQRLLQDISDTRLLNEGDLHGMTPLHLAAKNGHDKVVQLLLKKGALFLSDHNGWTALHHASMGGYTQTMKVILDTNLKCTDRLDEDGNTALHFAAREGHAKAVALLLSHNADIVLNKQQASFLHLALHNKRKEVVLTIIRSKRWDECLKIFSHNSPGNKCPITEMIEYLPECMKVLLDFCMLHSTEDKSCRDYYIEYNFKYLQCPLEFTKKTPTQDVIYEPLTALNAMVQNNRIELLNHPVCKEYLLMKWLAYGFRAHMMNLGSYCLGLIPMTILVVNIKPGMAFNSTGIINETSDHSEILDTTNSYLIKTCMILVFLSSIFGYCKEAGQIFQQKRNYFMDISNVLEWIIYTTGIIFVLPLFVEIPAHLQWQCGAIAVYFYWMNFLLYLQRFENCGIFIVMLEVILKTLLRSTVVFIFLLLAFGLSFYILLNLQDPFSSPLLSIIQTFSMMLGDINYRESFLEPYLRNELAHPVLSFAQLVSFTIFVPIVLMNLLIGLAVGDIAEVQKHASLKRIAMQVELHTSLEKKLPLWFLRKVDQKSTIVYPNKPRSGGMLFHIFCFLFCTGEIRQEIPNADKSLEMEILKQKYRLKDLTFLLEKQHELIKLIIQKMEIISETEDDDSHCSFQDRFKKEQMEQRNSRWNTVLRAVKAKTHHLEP
# Protocol: In vitro inhibition of human TRPA1, whole cell patch configuration
# Measurement context: current activation 10 μM AITC, tested concentrations 320 pM to 3.2 μM, read-out: hTRPA1 IC50
Report the figure in nM without appending any unit label.

These recorded examples may help you get a feel for the data.
Compound: CC(=O)Cn1c(=O)c2c(ncn2[C@@H](C)C(=O)Nc2cccc(-c3cnc(N4CC5CC5C4)nc3)n2)n(C)c1=O (stereo partly drawn) [Compound 142]
Unit of measure: nM
IC50: 7

Compound: C[C@@H](C(=O)Nc1cncc(-c2cnc(N3CCC[C@H]3C(F)(F)F)nc2)n1)n1cnc2c1c(=O)n(CC#N)c(=O)n2C [Compound 48]
Unit of measure: nM
IC50: 7

Here's the next entry for you.
[ask] Entry under review: COCC(=O)Cn1c(=O)c2c(ncn2[C@@H](C)C(=O)Nc2cccc(-c3ccc(N4CC5C(C4)C5(F)F)nc3)n2)n(C)c1=O (stereo partly drawn) [Compound 258] . Reported IC50?
[reply] 7
